- Test system: SKNSH nerve cells
- Procedure details: Inhibition of calcium flux (IC50Ca2+) on SKNSH nerve cells
- Assay type: cell-based
- Run parameters: Homo sapiens, SK-N-SH, concentration which inhibits release of Ca2+ by 50%
- Text: In order for a substance to be recognized as a calcium-channel inhibitor, it must be able to reduce the intracellular calcium concentration or reduce the binding of calcium to intracellular proteins, such as, for example, calmodulin, such as is described in particular by Galizzi, J. P. et al., J. Biol. Chem., 1987, 262 p. […] The Applicant determined the IC50Ca2+ for inhibition of calcium flux of three compounds according to the invention using the protocol shown in these documents. […]
pIC50: −log10 of the molar value.

Compound	pIC50
CCCCCCCCCCCCCCCCCC(=O)OCCOCCN(CC)CC [((Diethylamino)ethoxy)ethyl stearate]	4.43
CCCCCCCCCCCCCCCC(=O)OCCOCCN(CC)CC [((Diethylamino)ethoxy)ethyl palmitate]	4.62
CCCCCCCCCC(=O)OCCOCCN(CC)CC [((Diethylamino)ethoxy)ethyl decanoate]	4.59
CCCCCCCCCCCC(=O)OCCOCCN(CC)CC [((Diethylamino)ethoxy)ethyl laurate, ((diethylamino)ethoxy)ethyl laurate]	4.96

src = patent US20080287537A1
